Data origin: the supplement of paper PMC12042874

# measurement.protocol: amyloid nucleation score (Sup35N fusion, yeast selection) (log enrichment); library NNK2; higher = more nucleation; inactive = no reads after selection;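 further: zero at mode of non-aggregating sequences after 7 days selection at 30°C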
Our labelling divides records by amyloid nucleation score into ranges: low end (below -0.07), middle (-0.07 to below 2), high end (2 or more)

Completed entries (count: 3):
- substance: "RRAVLVSPGVVNQGISKHQG"
  class: "middle"
- substance: "CLYLACIEGWLP"
  class: "high end"
- substance: "GVTWTV"
  class: "low end"

Attention now turns to another entry.
Category of `RAFRKAGMYSYLSG` : high end

###

# measurement.protocol: amyloid nucleation score (Sup35N fusion, yeast selection) (log enrichment); library NNK1; higher = more nucleation; inactive = no reads after selection
assay.metric: amyloid nucleation score

For the substance `ESIFLRRTVALHRKVCLIDW` , give its measured amyloid nucleation score value. 0.783

###

# measurement.protocol: amyloid nucleation score (Sup35N fusion, yeast selection) (log enrichment); library NNK1; higher = more nucleation; inactive = no reads after selection
Decision: amyloid nucleation score >= 0.3 yields condition met, all other cases yield condition not met.

- query.sequence: "LCTLCIALPVMRVLSTVPVP"
  class: "condition not met"
- query.sequence: "LIVIPKGG"
  class: "condition met"
- query.sequence: "CSTALLDEKLLFHGTYIMRD"
  class: "condition met"
- query.sequence: "QDFILDNCFPEGNLVCFKGV"
  class: "condition met"
- query.sequence: "VTRYRTLTRHWWS"
  class: "condition not met"

Threshold query (amyloid nucleation score >= 0.3) on `LYNTITRDTTPHGVEN` condition not met

Threshold query (amyloid nucleation score >= 0.3) on `MLLWSVSLNKKKTLKECRRQ` condition met

Threshold query (amyloid nucleation score >= 0.3) on `TNVKQQACRLRSS` condition met

###

# measurement.protocol: amyloid nucleation score (Sup35N fusion, yeast selection) (log enrichment); library NNK3; higher = more nucleation; inactive = no reads after selection
assay.metric: amyloid nucleation score

Illustrative cases are given below, each with its answer.
- substance: "TYLRLTWIDCYSPCFKSNAI"
  assay.metric: "amyloid nucleation score"
  meas.value: 2.43
- substance: "MINCISNMVISIGSKRTYPS"
  assay.metric: "amyloid nucleation score"
  meas.value: 2.5
- substance: "YQSKQRVGSS"
  assay.metric: "amyloid nucleation score"
  meas.value: "inactive"
- substance: "RFACFSRGACFCNRLVMPYD"
  assay.metric: "amyloid nucleation score"
  meas.value: "inactive"
- substance: "MMVMWD"
  assay.metric: "amyloid nucleation score"
  meas.value: "inactive"

For the substance `TVVKPNRLAYHSQLFCKAHT` , give its measured amyloid nucleation score value. inactive

For the substance `TTTRIAMYWYEYMSGCASHY` , give its measured amyloid nucleation score value. inactive

For the substance `SVERCVIRFCYLQGLYMAAF` , give its measured amyloid nucleation score value. inactive

For the substance `LIICLYSTAGRGIRWSDSTA` , give its measured amyloid nucleation score value. inactive

For the substance `SAYSSGLRSKAYLYTASCTP` , give its measured amyloid nucleation score value. inactive

For the substance `GVGCTKSECRSICMPKHP` , give its measured amyloid nucleation score value. inactive

For the substance `VVYYWSVRITAVQHYWHLYT` , give its measured amyloid nucleation score value. inactive

For the substance `FLCMSLATRMLTFRLFPTNL` , give its measured amyloid nucleation score value. inactive

For the substance `WYMHTTLD` , give its measured amyloid nucleation score value. inactive

For the substance `TSQYRPERKLRVR` , give its measured amyloid nucleation score value. inactive

For the substance `GCLRDPTVAQVDYLGYGVRL` , give its measured amyloid nucleation score value. inactive

For the substance `FYRFFDSV` , give its measured amyloid nucleation score value. inactive

For the substance `ERALPQGMDRWSWFRERSCH` , give its measured amyloid nucleation score value. inactive

For the substance `CMHGRGMWMNIACAFSCRQF` , give its measured amyloid nucleation score value. 0.063

For the substance `YRILINFLSWYLCIYYASCA` , give its measured amyloid nucleation score value. inactive

For the substance `LIYRSLPFSCLSSGV` , give its measured amyloid nucleation score value. inactive
